tested on: Human immunodeficiency virus 1; experiment: Resistance index, ratio of EC50 for HIV-1 harboring reverse transcriptase Y181C mutant to EC50 for wild type HIV-1 NL4-3; assay type: functional
metric: Ratio EC50
A bare number is all that is needed in reply.

**Q:** Field request: Ratio EC50 | item: CCCNc1nc(C(OC)c2c(F)cccc2F)c(C)c(=O)[nH]1 (stereo not drawn)
**A:** 20

**Q:** Now the molecule CCCN(C)c1nc(C(OC)c2c(F)cccc2F)c(C)c(=O)[nH]1 (stereo not drawn)
**A:** 20

###

experiment: Cytotoxicity against human MT4 cells assessed as reduction in cell viability after 5 days by MTT assay; format: cell-based
metric: CC50 at 120 h

**Q:** Field request: CC50 at 120 h | item: CCC(C)Sc1nc(C(CC)c2c(F)cccc2Cl)c(C)c(=O)[nH]1 (stereo not given)
**A:** > 3 µM

**Q:** Now the compound Cc1c(C(C)c2c(F)cccc2Cl)nc(SC2CCCC2)[nH]c1=O (stereo not given)
**A:** > 15 µM

**Q:** Now the compound CCC(c1nc(SC(C)C)[nH]c(=O)c1C)c1c(F)cccc1F (stereo not given)
**A:** > 30 µM

**Q:** Now the compound COC(c1nc(SC(C)C)[nH]c(=O)c1C)c1c(F)cccc1F (stereo not given)
**A:** > 25 µM

**Q:** Now the compound CCC(C)Sc1nc(O)c(C)c(C(C)c2c(F)cccc2F)n1 (stereo not given)
**A:** > 3 µM
